- stated conditions: buffer; pH 7.4; 200.0 µM
Assignment: determine reported solubility kinetic for the given compounds.
Numbers only, in µg/mL.

As a guide, the following entries are already answered.
CCc1ccc(C(=O)Nc2nc3ccccc3[nH]2)cc1	0.5
CCN(CC)CC(O)CN1c2ccccc2Sc2ccccc21 (stereo unspecified)	44.4

Lab note: next compound to report on.
**Q:** Find the recorded solubility kinetic belonging to O=C1NC(c2cccc(Cl)c2)Oc2ccccc21 (stereo unspecified) and report it.
**A:** 1.2

###

- stated conditions: buffer; pH 7.4; 200.0 µM
observable: solubility kinetic (µg/mL)
One number for each entry, in µg/mL.

COc1ccc(N2C(=O)C(C)C(Cc3ccc(C)cc3)C2=O)cc1 (centres undefined)	2.4
C=CCn1c(COc2ccc(OC)cc2)nc2ccccc21	26.8
COc1ccc(NC(=O)CC2(CC(=O)O)CCCC2)cc1	43.6

Would you be so kind as to report solubility kinetic for each listed record?
1. CC(=O)c1sc(NC(=O)COc2ccccc2)nc1C
2. CSC(=Nc1ccccc1)Nc1ccccc1

**A:**
1. 5.7
2. 6.4

Would you be so kind as to report solubility kinetic for each listed record?
1. Cc1ccc(C)c(OC(=O)CN2C(=O)c3ccccc3C2=O)c1
2. O=C(/C=C/c1ccccc1)OCN1C(=O)c2ccccc2C1=O

**A:**
1. 4
2. 2.6

Would you be so kind as to report solubility kinetic for each listed record?
1. N#Cc1ccc(C(=O)Nc2cccc3ccccc23)c(F)c1
2. O=C(Nc1ccccc1)c1c2c(nc3ccccc13)CCCC2
3. Cc1c(Cl)cccc1NC(=O)CS(=O)(=O)c1ccccc1
4. O=C(Nc1ncc(Cc2cccc(Cl)c2Cl)s1)C1CCCO1 (centres undefined)
5. O=C1CSC(c2ccccc2[N+](=O)[O-])N1c1cccc(F)c1 (centres undefined)
6. Cc1ccc(N=C(N)N=C(N)N)c(C)c1
7. COc1ccccc1CC(=O)Nc1ccc2c(c1)OC1(CCCC1)O2
8. Cc1nc(N)c(C#N)c(-c2ccc3c(c2)OCO3)c1C

**A:**
0.9
0.5
30.3
1.9
12.9
28.8
35.7
0.5

Would you be so kind as to report solubility kinetic for each listed record?
1. Cc1ccccc1NC(=O)NC1(C(=O)NCc2ccco2)CCCCC1
2. COc1ccc(CCNC(=O)c2cccs2)cc1OC
3. COc1cc2c(cc1OC)CN(C(=O)c1cccc([N+](=O)[O-])c1)CC2
4. O=C(OCc1nc(-c2ccccc2Cl)no1)c1ccco1
5. N#Cc1c(-c2ccccc2)cc(-c2ccccc2)[nH]c1=O
6. COc1ccc2[nH]c(C(=O)Nc3ncc(C)cc3Br)cc2c1

**A:**
1: 8.5; 2: 33.8; 3: 36; 4: 19; 5: 0.6; 6: 6.1

###

Assignment: determine reported solubility kinetic for the given compounds.
- stated conditions: buffer; pH 7.4; 200.0 µM
Answers are plain numbers, in µg/mL.

As a guide, the following entries are already answered.
COc1cccc(N2CCN(c3nc(C)cc(=O)[nH]3)CC2)c1	44.6
O=C(COC(=O)C1CC2C=CC1C2)Nc1c(Br)cc([N+](=O)[O-])cc1Br (configuration not stated)	57.2
Cc1cc(NC(=O)c2ccc(F)cc2)ccc1NC(=O)c1ccco1	3.4

Would you be so kind as to report solubility kinetic for each listed record?
1. COC(=O)c1cccc(CSC(=S)N2CCCC2)c1
2. c1cncc(-c2nc(-c3ccc4c(c3)OCCO4)cs2)c1
3. Fc1ccccc1NC(=S)NCc1ccc(Cl)cc1
4. CCOc1ccc(NC(=O)CSc2nc(=O)n(Cc3cccnc3)c3c2CCC3)cc1
5. CSc1ccc(/C=C/C(=O)OCC(=O)N(C)CCC#N)cc1
6. COCc1cc(C)nc(SCc2ccc(F)cc2)c1C#N

**A:**
3.6
4.6
11.2
4.8
29.9
1.1

Would you be so kind as to report solubility kinetic for each listed record?
1. Cc1ccc([N+](=O)[O-])cc1NC(=S)NCCc1ccccc1
2. O=C(O)/C=C/C(=O)Nc1ccc(Cl)c(C(=O)O)c1
3. CC(=O)Oc1ccc2nc(-c3ccco3)oc(=O)c2c1
4. COC(=O)c1cccc(N2C(=O)C3C4C=CC(CC4)C3C2=O)c1 (configuration not stated)

**A:**
1: 39.4; 2: 38; 3: 27.7; 4: 9.2

Would you be so kind as to report solubility kinetic for each listed record?
1. CC(C)(C)N1CC(C(=O)Nc2ccc(C#N)cc2)CC1=O (configuration not stated)
2. CCN(CC(=O)Nc1ccc(C(=O)OC)cc1)C1CCCCC1
3. O=C(Cc1ccccc1)N1CCN(c2ccc([N+](=O)[O-])cc2)CC1
4. NC(=O)c1cc(S(=O)(=O)NCc2cccs2)cs1

**A:**
40.2
43.3
3.7
43.4

Would you be so kind as to report solubility kinetic for each listed record?
1. O=S(=O)(NC1C2CC3CC(C2)CC1C3)c1ccc(F)cc1 (configuration not stated)
2. CCc1sc(NC(=O)C(C)C)nc1-c1ccccc1
3. O=C(Nc1ccc(Cl)cc1)N1CCN(c2ncccn2)CC1
4. O=C(Nc1nccs1)c1ccc(-c2ccc(Cl)cc2)o1

**A:**
[23, 15.6, 44.4, 1.9]

###

- stated conditions: buffer; pH 7.4; 200.0 µM
observable: solubility kinetic (µg/mL)
Give bare numbers, in µg/mL.

As a guide, the following entries are already answered.
COc1ccc(Nc2nc(-c3cccnc3)cs2)c(OC)c1	26.3
CNCCCC12CCC(c3ccccc31)c1ccccc12	38.6
COc1cc(Nc2ccc(S(N)(=O)=O)cc2)c([N+](=O)[O-])nc1[N+](=O)[O-]	3.8

Would you be so kind as to report solubility kinetic for each listed record?
1. COc1cccc(C(=O)NCc2ccc3[nH]c(C)cc3c2)c1
2. Cc1cccc(C(=O)NCC(=O)NC2CCC(C)CC2)c1 (centres undefined)
3. O=C(NC1CCCc2ccccc21)c1cn2ccccc2n1 (centres undefined)

**A:**
15.8
10.5
39.7

Would you be so kind as to report solubility kinetic for each listed record?
1. O=C(NC(=S)Nc1ccccc1[N+](=O)[O-])c1ccccc1Cl
2. CN=C(C)/C(C(=O)OC)=C(/O)c1c(F)cccc1F
3. CC(=O)c1cccc(NC(=O)COC(=O)C2CCCN2C(=O)c2cccs2)c1 (centres undefined)
4. CCC1(CC)NC(=O)N(CC(=O)Nc2ccc(OCc3ccccc3)cc2)C1=O

**A:**
[1.2, 25.9, 6.5, 8.9]

Would you be so kind as to report solubility kinetic for each listed record?
1. COc1ccc2[nH]c(C(=O)NCc3ccccc3)cc2c1
2. Clc1ccc2c(NCc3cccs3)ncnc2c1
3. CCOc1ccccc1NC(=O)c1ccc(CN2CCc3ccccc3C2)cc1
4. CCOc1ccc(NC(=S)NCc2ccc3c(c2)OCO3)cc1
5. O=C(COC(=O)c1cnccn1)c1ccc(Cl)cc1
6. CCOC(=O)/C=C/C(=O)OCC(=O)Nc1ccc(Cl)cc1Cl
7. CCOC(=O)C1CCN(C(=O)COC(=O)/C=C/c2ccc([N+](=O)[O-])cc2)CC1

**A:**
1. 1.3
2. 4.5
3. 2.3
4. 17.1
5. 38.4
6. 8.8
7. 18.7

Would you be so kind as to report solubility kinetic for each listed record?
1. c1ccc(CC(NCc2ccco2)c2ccccc2)cc1 (centres undefined)
2. O=C(Cc1cccc2ccccc12)Nc1ccccc1
3. O=C(Nc1ccc(Cl)c(S(=O)(=O)N2CCCC2)c1)c1cc(=O)[nH]c2ccccc12
4. CC(=O)c1sc(-c2ccc(Cl)cc2)cc1N
5. Cc1ccccc1NC1=NCC(c2ccc([N+](=O)[O-])cc2)S1 (centres undefined)

**A:**
[13.6, 1.9, 14.5, 1.8, 10.5]

**Q:** Find the recorded solubility kinetic belonging to O=C(NCCc1ccc(Cl)cc1)c1ccc2c(c1)OCCO2 and report it.
**A:** 0.8

###

- stated conditions: buffer; pH 7.4; 200.0 µM
Binary classification by solubility kinetic, with 5 µg/mL as an inclusive lower bound for 1; all other cases are -1.

CC(=O)c1ccc(S(=O)(=O)N(C)C(C)CCc2ccco2)cc1 (stereo not given)	1
Cc1ccc(C(=O)OCC(=O)NCCc2ccc(S(N)(=O)=O)cc2)o1	1
CC1(C)Cc2sc3c(=O)[nH]c(=S)[nH]c3c2CO1	1
CCOCCCNC(=O)CN1C(=O)c2cccc3cccc1c23	1
COc1cc([N+](=O)[O-])ccc1NC(=O)COC(=O)c1c[nH]c(=O)[nH]c1=O	1
Cc1cccc(N)c1-c1c(C)cccc1N	1

**Q:** Given the entry CC(=O)c1ccc(NC(=S)NCc2ccco2)cc1 , answer whether its solubility kinetic meets or surpasses 5 µg/mL.
**A:** 1

**Q:** How about this molecule: CC(=O)c1cccc(NC(=S)Nc2cccc3ccccc23)c1
**A:** 1

**Q:** How about this molecule: O=C1Nc2ccccc2C1Cc1ccccn1 (stereo not given)
**A:** 1

**Q:** How about this molecule: Cc1ccc(S(=O)(=O)N2CCCCC2)cc1NC(=O)COC(=O)c1cccn1C
**A:** 1

**Q:** How about this molecule: CCN(CC)c1ccc(NC(=O)CCCCC(=O)Nc2ccc(N(CC)CC)cc2)cc1
**A:** -1

**Q:** How about this molecule: Cc1occc1C(=O)Nc1ccc(S(N)(=O)=O)cc1
**A:** 1

**Q:** How about this molecule: COCC1CCN(Cc2nc(-c3ccc(OC)cc3)no2)CC1
**A:** 1

**Q:** How about this molecule: CCc1ccc(NC(=S)N(Cc2ccccc2)Cc2ccccn2)cc1
**A:** -1

**Q:** How about this molecule: COc1ccc(C(=O)CNc2cccc(F)c2)cc1
**A:** -1
